Molecular target: mouse LTBP1-proTGFβ1 complex (mouse, UniProt Q8CG19 339-1712; P04202 30-390)
Sequence (Q8CG19 339-1712 limits assumed, chain 1 of 2): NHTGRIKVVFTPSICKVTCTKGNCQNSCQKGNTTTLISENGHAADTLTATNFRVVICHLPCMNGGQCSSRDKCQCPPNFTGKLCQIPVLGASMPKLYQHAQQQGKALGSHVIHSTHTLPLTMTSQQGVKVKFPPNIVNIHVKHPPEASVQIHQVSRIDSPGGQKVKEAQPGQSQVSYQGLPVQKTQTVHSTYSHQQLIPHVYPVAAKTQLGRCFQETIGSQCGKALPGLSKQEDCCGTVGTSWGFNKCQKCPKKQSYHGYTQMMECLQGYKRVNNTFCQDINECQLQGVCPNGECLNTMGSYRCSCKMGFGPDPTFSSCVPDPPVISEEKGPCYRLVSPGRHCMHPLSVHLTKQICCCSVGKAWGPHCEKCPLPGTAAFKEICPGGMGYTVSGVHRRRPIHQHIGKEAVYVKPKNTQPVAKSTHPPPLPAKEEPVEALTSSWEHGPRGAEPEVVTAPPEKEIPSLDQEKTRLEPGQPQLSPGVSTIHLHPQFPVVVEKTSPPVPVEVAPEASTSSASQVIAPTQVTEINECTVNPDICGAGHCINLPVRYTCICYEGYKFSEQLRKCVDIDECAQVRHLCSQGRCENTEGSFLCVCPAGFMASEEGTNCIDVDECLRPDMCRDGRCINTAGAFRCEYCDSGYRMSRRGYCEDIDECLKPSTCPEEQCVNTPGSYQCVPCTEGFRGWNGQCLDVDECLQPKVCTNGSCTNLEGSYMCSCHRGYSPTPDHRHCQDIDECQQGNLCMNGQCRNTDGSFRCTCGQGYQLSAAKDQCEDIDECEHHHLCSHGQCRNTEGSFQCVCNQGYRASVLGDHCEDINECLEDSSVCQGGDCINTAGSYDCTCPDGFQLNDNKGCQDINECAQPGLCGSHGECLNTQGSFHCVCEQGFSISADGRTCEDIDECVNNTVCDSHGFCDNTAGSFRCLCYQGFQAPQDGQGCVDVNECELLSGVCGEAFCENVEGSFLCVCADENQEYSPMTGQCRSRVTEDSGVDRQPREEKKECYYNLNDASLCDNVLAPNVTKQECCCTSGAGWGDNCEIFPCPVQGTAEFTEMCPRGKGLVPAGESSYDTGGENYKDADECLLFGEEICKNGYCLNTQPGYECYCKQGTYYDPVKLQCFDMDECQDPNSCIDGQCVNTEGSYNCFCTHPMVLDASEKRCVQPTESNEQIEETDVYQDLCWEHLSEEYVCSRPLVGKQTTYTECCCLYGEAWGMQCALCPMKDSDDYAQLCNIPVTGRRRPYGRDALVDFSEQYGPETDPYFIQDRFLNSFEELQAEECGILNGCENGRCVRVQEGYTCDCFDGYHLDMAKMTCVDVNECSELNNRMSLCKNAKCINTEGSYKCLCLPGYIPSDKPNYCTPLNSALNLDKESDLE
Sequence (P04202 30-390 limits assumed, chain 2 of 2): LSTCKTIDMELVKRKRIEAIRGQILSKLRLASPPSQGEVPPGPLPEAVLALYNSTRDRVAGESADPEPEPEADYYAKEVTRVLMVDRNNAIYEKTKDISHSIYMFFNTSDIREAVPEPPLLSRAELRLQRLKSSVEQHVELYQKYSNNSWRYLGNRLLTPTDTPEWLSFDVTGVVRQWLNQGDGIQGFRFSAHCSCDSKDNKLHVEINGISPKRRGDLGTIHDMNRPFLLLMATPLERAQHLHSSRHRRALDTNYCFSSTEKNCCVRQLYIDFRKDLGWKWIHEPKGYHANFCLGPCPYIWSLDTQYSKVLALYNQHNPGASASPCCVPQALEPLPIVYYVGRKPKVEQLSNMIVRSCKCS
Assay: cell-based or functional assay
Measured IC50, mLTBP1 assay (CAGA12 luciferase) accompanies every entry in the list below.

binder	IC50, mLTBP1 assay (CAGA12 luciferase) [nM]
SR-AB10 (antibody, IgG1, V domains shown, Parent antibody) VH: QLQLQESGGGVVQPGRSLRLSCAASGFTFNNYPIHWVRQAPGKGLEWVAVMSYDGINKYYADSVKGRFTISRDNSKNTLYLQMNSLRAEDTAVYYCARPRIAARRGGFDYWGQGTLVTVSS VL: NFMLTQPHSVSESPGKTVTISCTRSSGNIDNNYVQWYQQRPGSSPTTVIYEDNQRPSGVPDRFSGSIDSSSNSASLTISGLKTEDEADYYCQSYDSDNQGVVFGGGTKLTVL	119
SR-AB41 (antibody, IgG1, V domains shown, Cycle 3, lineage SR-AB23) VH: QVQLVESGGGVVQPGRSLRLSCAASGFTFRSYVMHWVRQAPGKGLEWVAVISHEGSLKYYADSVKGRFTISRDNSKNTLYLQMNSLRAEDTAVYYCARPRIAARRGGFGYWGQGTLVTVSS VL: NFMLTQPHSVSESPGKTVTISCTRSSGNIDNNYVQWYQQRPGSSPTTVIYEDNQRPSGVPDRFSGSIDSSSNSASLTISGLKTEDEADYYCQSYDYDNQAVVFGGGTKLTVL	0.409
SR-AB23 (antibody, IgG1, V domains shown, Cycle 2, lineage SR-AB14) VH: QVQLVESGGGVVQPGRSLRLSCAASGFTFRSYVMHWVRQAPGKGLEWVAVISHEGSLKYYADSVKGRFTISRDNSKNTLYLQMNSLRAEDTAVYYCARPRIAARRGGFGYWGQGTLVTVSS VL: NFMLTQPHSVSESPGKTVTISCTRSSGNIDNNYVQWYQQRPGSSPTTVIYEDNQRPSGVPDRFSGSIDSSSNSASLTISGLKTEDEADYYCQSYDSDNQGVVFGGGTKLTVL	0.946
SR-AB45 (antibody, IgG1, V domains shown, Cycle 3, lineage SR-AB23) VH: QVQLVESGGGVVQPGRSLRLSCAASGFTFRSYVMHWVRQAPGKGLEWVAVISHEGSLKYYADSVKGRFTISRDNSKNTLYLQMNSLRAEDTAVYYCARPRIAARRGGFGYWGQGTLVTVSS VL: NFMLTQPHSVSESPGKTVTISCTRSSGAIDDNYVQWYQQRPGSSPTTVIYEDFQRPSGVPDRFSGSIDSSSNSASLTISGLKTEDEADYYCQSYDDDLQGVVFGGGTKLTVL	0.264
SR-AB43 (antibody, IgG1, V domains shown, Cycle 3, lineage SR-AB23) VH: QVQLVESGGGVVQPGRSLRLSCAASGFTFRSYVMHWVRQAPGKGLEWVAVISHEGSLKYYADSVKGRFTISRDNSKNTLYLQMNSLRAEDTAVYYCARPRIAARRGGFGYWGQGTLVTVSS VL: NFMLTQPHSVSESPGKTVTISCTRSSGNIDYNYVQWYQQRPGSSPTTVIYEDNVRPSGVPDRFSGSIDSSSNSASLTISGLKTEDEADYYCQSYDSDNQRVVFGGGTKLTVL	0.319
